Below: a set of entries, each annotated with reported %Inh.
# System: TYK2(JH1domain-catalytic);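 also: KINOMEscan kinase panel screen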
# settings: concentration: 1 μM, replicates: in singlicate; n = 1

# compound, %Inh
records = [
    ("COC(=O)C(NC(=O)NC1CCN(c2ccnc(Nc3ccc(F)cc3)n2)C1)c1ccccc1 (centres unmarked) [GSK1379712]", "13%"),
    ("COc1ccc(Nc2nccc(N3CCC(NC(=O)C(C)c4ccc(Cl)cc4)CC3)n2)cc1 (centres unmarked) [GSK1379812]", "0%"),
    ("CSc1ccc(-c2nc3n(c2-c2ccncc2)CCC3)cc1 [SKF-105561]", "0%"),
    ("O=c1cc(N2CCOCC2)nc2n(Cc3cccc(Cl)c3Cl)c3ccccc3n12 [GSK2299009]", "0%"),
    ("CNc1nc(-c2ccc3c(N)n[nH]c3c2)cc(N2C[C@@H](C(=O)NC3CCCCC3)OC[C@H]2C)n1 [GSK2375584]", "0%"),
    ("Cc1ccc(NC(=O)c2ccc(Cl)cc2)cc1-c1ccc(C(=O)Nc2ccncc2)cc1 [GSK1398467]", "0%"),
    ("COc1ccc(CSc2nnc(-c3ccc4c(c3)CCO4)o2)cc1", "0%"),
    ("COc1cccc(NC(=O)Nc2ccc(C)c(-c3ccc(C(=O)Nc4ccncc4)cc3)c2)c1 [GSK1398474]", "0%"),
    ("O=C(Nc1n[nH]c2nc(-c3ccco3)c(Br)cc12)C1CCN(Cc2ccccc2)C1.O=C(O)[C@H](O)[C@@H](O)C(=O)O (centres unmarked) [SB-742034]", "5%"),
    ("Cc1ccc(NC(=O)Nc2ccc(Cl)cc2)cc1-c1ccc(C(=O)Nc2ccncc2)cc1 [GSK1398472]", "62%"),
    ("Fc1ccc(-c2nc3n(c2-c2ccncc2)CCS3)cc1 [GI98581]", "8%"),
    ("Cc1ccccc1Cn1ccn2c(=O)cc(N3CCOCC3)nc12 [GSK2269905]", "0%"),
    ("CN1c2ccc(-c3ccc(C(N)=O)cc3)cc2-c2[nH]ncc2S1(=O)=O", "45%"),
    ("Cl.Cl.Cl.N#Cc1ccc(CCNc2nccc(-c3cccc(CN4CCNCC4)c3)n2)cc1 [GSK2137462]", "0%"),
    ("Cc1ccccc1-c1cc(-c2c[nH]nc2-c2ccccn2)ccn1 [GW680061]", "0%"),
    ("CS(=O)(=O)Cc1ccc(Nc2nccc(-c3c(-c4cccc(NC(=O)C5CCCCC5)c4)nn4ncccc34)n2)cc1 [GSK350559]", "0%"),
    ("COc1ccc(Nc2nccc(N3CCC(NC(=O)C(C)c4ccc(Cl)cc4)C3)n2)cc1 (centres unmarked) [GSK1379735]", "28%"),
    ("COc1ccc(CSc2nnc(-c3ccc4nccn4c3)o2)cc1C(F)(F)F", "8%"),
    ("COc1ccc(CSc2nnc(-c3ccc4ncsc4c3)o2)cc1C(F)(F)F", "0%"),
    ("CNc1cc(-c2ccc3c(N)n[nH]c3c2)nc(N)n1 [GSK2224810]", "7%"),
    ("CNC(=O)c1ccc(C)c(-n2c(C)cc(OCc3ccc(F)cc3F)c(Br)c2=O)c1", "0%"),
    ("COc1cccc(CNC(=O)NC2CCN(c3ccnc(Nc4ccc(F)cc4)n3)C2)c1 (centres unmarked) [GSK1379723]", "20%"),
    ("CS(=O)(=O)CCNCc1nc(-c2ccc3ncnc(Nc4ccc(OCc5ccccc5)c(Cl)c4)c3c2)cs1.Cl [GW582764]", "30%"),
    ("COC(=O)C(Cc1ccccc1)NC(=O)NC1CCN(c2ccnc(Nc3ccc(F)cc3)n2)C1 (centres unmarked) [GSK1379714]", "33%"),
    ("CCn1c(-c2c(N)noc2C)nc2cnccc21 [SB-737856]", "0%"),
    ("O=C1NC(=O)C(c2ccc(Cl)cc2)=C1Nc1ccc(O)cc1 [SB-340867]", "0%"),
    ("Cc1nccc(-c2c(-c3ccc(F)cc3)ncn2CCCN2CCOCC2)n1.Cl [SB-282975]", "42%"),
    ("Nc1ncnc2occ(-c3ccc4c(c3)CCN4C(=O)Cc3cc(F)ccc3F)c12 [GSK2645446]", "2%"),
    ("Fc1ccc(-c2nc[nH]c2-c2ccncc2)cc1 [SB-217360]", "2%"),
    ("Cc1ccc(NC(=O)Nc2ccccc2)cc1-c1ccc(C(=O)Nc2ccncc2)cc1 [GSK1398471]", "0%"),
    ("Cc1ccc(NC(=O)Nc2ccc(Cl)c(C(F)(F)F)c2)cc1-c1ccc(C(=O)Nc2ccncc2)cc1 [GSK1398470]", "0%"),
    ("COc1ccc(Nc2nccc(NCCNC(=O)Nc3cc(C)ccc3C)n2)cc1 [GSK1379899]", "17%"),
]

Value source: paper PMC5540273
